// data source = patent US5637591A

- run_description: oral bioavailability in rats (AUC versus intravenous)
- stated_conditions: rat, in vivo, po, 50 mg/kg, rats, 50 mg/kg oral, 2% Brij35/water; compared to 10 mg/kg IV; read-out: F (Bioavailability)
measured_endpoint: bioavailability (%)
State just the number; it will be interpreted in %.

Data point: Nc1ccc2c(c1)[n+]([O-])c1ccccc1[n+]2[O-] [2-aminophenazine-5,10-dioxide] ; bioavailability = 76

---

- run_description: oral bioavailability in rats (AUC versus intravenous)
- stated_conditions: rat, in vivo, po, 100 mg/kg, rats, 100 mg/kg oral, PEG (Polyethyleneglycol); compared to 10 mg/kg IV; read-out: F (Bioavailability)
- Protocol: The bioavailibility of orally delivered substituted phenazine-5,10-dioxideswas measured because oral delivery also can comprise systemic administration. The bioavailibility was assessed for the phenazine-5,10-dioxide derivative, 2-aminophenazine-5,10-dioxide administered by oral gavage to rats. Vehicles and dose levels are detailed in Table 9. […]
measured_endpoint: bioavailability
Answer with the value and then the unit.

Data point: Nc1ccc2c(c1)[n+]([O-])c1ccccc1[n+]2[O-] [2-aminophenazine-5,10-dioxide] ; bioavailability = 100%
